Test system: SNB-19
Assay: NCI tumour cell line growth inhibition, 48 h
Calls of active or inactive are those of the source. Rule as the data show it: active = GI50 up to about 1.1 µM and inactive = higher.
endpoint: GI50

Would you kindly share the measured GI50 for O=C(O)c1ccc(Nc2cnc3ccc(C(F)(F)F)cc3n2)cc1 ?
18.8 µM (inactive)

Which measured GI50 value corresponds to CCOC(=O)C1=C(C)N(c2ccc(OC)cc2)C2(O)C=CC(O)=C3C(=O)c4ccccc4C(=O)C312 (configuration not stated) ?
13 µM (inactive)

Give its GI50 value. Item: C=CCC12CCC(=O)C=C1CCC1(C2)OCCO1 (configuration not stated)
> 100 µM (inactive)

Entry under review: Cc1ccc(/N=N/C(=O)NNc2ccc(C)c([N+](=O)[O-])c2)cc1[N+](=O)[O-] . Reported GI50?
36.3 µM (inactive)

Reported GI50, compound COC(=O)CC1c2ccccc2N2C(=O)Cc3c([nH]c4ccccc34)C12 (configuration not stated) : ____
> 100 µM (inactive)

Please report the recorded GI50 for O=C(O)CCc1nn2c(nc1=O)sc1ccc3ccccc3c12 .
> 100 µM (inactive)

Could you share which GI50 value was measured for CSc1nc(NC2OC(COC(C)=O)C(OC(C)=O)C(OC(C)=O)C2OC(C)=O)c(/N=C\C=N/c2c(NC3OC(COC(C)=O)C(OC(C)=O)C(OC(C)=O)C3OC(C)=O)nc(SC)n(C)c2=O)c(=O)n1C (configuration not stated) ?
38.6 µM (inactive)

Any idea what its GI50 is? The compound is [N-]=[N+]=NC1CC(n2ccc(N)nc2=O)OC1COP(=O)(O)OP(=O)(O)OP(=O)(O)O (configuration not stated)
> 100 µM (inactive)

If you can, please state the reported GI50 value of CNC(=O)OCc1c(COC(=O)NC)c(-c2ccc(-c3ccccc3)cc2)n(C)c1C .
3.33 µM (inactive)

Could you share which GI50 value was measured for CSC1=C(C)S/C(=C\c2ccc(/C=C3\SC(C)=C(SC)S3)cc2)S1 ?
> 100 µM (inactive)

Give its GI50 value. Item: O=C1c2c(F)c(F)c(F)c(F)c2SC2=NCCN12
15.3 µM (inactive)

GET /values?readout=GI50&item= O=C(NCCCCCCNC(=O)c1cc(-c2ccccc2)nc2ccccc12)c1cc(-c2ccccc2)nc2ccccc12
> 100 µM (inactive)

GI50 for O=C(Nc1ccccc1F)c1cc2ccc(O)cc2o/c1=N\c1cccc(C(F)(F)F)c1 ?
5.87 µM (inactive)

Query: GI50; subject: COc1cccc(-c2cc(O)c3cc(OC)c(OC)cc3n2)c1
58.2 µM (inactive)

# get_value(readout='GI50', item= COc1ccc(-c2c3c(n(C4OC(CO)C(O)C(O)C4O)c(=S)c2C#N)CC(C)(C)CC3=O)cc1 (configuration not stated) )
> 100 µM (inactive)

# lookup: GI50 of C=C(Cl)C(Cl)(CBr)CCCC(C)C (configuration not stated)
18.7 µM (inactive)

Look up GI50: Cn1c(N)c(/C=N/NC(=O)CC#N)c(=O)n(C)c1=O
> 100 µM (inactive)

Entry under review: COC(=O)C12CCC(CC1=O)C2(C)C (configuration not stated) . Reported GI50?
> 100 µM (inactive)

Query (compound): Oc1cc(-c2cccc(C(F)(F)F)c2)nc2cc3c(cc12)OCO3 ; field requested: GI50
2.77 µM (inactive)

Which GI50 reading was recorded for the compound C=C1CC[C@@]2(OC1)OC1C[C@H]3[C@@H]4CC=C5C[C@@H](O)CC(OC6OCC(OC(=O)[C@@H](O)[C@@H](C)CC)C(OC(C)=O)C6OC6OC(C)C(O)C(O)C6O)[C@]5(C)[C@H]4CC[C@]3(C)C1[C@@H]2C (some centres not stated) ?
1.96 µM (inactive)

Quick check: GI50 of CNS(=O)(=O)NNS(=O)(=O)c1ccc(OC)cc1 ?
> 100 µM (inactive)

Form field: reported GI50 of CC1(C)C(N2CCOCC2)CS1(=O)=O (configuration not stated)
> 10 µM (inactive)

Name the reported GI50 value associated with the compound O=C(O)c1ccccc1CC1Cc2ccccc2C1
> 100 µM (inactive)

Suppose we examine the compound O=C(O)c1nc2cc(C(F)(F)F)ccc2[nH]c1=O ; what GI50 value has been reported?
> 100 µM (inactive)

Which measured GI50 value corresponds to O=[N+]([O-])c1cccc([N+](=O)[O-])c1Cl ?
13.1 µM (inactive)

GI50 for CCCCCc1c(CCCC)c(=O)[nH]c2cc(CNCC(OC)OC)ccc12 ?
12.8 µM (inactive)

Query: GI50; subject: O=C1CC(Cl)c2c1csc2Br (configuration not stated)
17.5 µM (inactive)

Which measured GI50 value corresponds to Cc1nn(-c2ccccc2)c2nc3c(c(C)nn3-c3ccccc3)c(-c3ccccc3Br)c12 ?
> 100 µM (inactive)

Which GI50 is listed for O=c1oc2c(ccc3ccccc32)cc1C1=CSC2=NCCN12 ?
38.6 µM (inactive)

// lookup GI50 for CC(C)=NOC(=O)CNC(=O)C(Cc1ccccc1)NC(=O)C(C)NC(=O)OC(C)(C)C (configuration not stated)
> 100 µM (inactive)

Any idea what GI50 was measured for S=CN1CCCCC1 ?
> 100 µM (inactive)

For the compound shown here, COc1ccc(/C=N\N2C(=O)Cc3ccccc32)cc1 , give the reported GI50.
> 100 µM (inactive)

May I ask what GI50 has been recorded for CC1=CC2(O)OC3(CC2=C(C)C)C(C)CCC13 (configuration not stated) ?
> 100 µM (inactive)

So what's the measured GI50 for this one? CCOC(=O)C(=O)C(CCC(=O)c1ccc2ccccc2c1O)C(=O)OCC (configuration not stated)
> 100 µM (inactive)

Reported GI50 for COc1ccc2nc(N/N=C/C(C)=N/Nc3cc(C)c4cc(OC)ccc4n3)cc(C)c2c1 : what is it?
23.1 µM (inactive)

For the compound shown here, CC(C)(CO)N1CCN(C(S)=Nc2ccccc2)CC1 , give the reported GI50.
> 100 µM (inactive)

Please report the recorded GI50 for COc1ccc2c3c([nH]c2c1[N+](=O)[O-])C(C)=NCC3 .
> 100 µM (inactive)

Would you mind telling me what GI50 value was observed for O=S(=O)(c1ccc(/N=N/O)nc1)c1ccc2ccccc2c1 ?
> 100 µM (inactive)

Data request, read-out GI50, for OC1(c2cc3ccccc3s2)CCCCC1
82.4 µM (inactive)

Find the recorded GI50 belonging to O=P1(Oc2ccccc2)NCc2ncccc2O1 (configuration not stated) and report it.
> 100 µM (inactive)

Endpoint output: GI50 of C/C(=N\N(c1ccccc1)c1ccccc1)c1c(O)cc(C)oc1=O . Value?
> 100 µM (inactive)

Given the entry N#Cc1cc([N+](=O)[O-])ccc1NC(=O)C(=O)C(C(=O)/C=C/c1ccccc1)C1OC(=O)c2ccccc21 (configuration not stated) , report its measured GI50.
> 100 µM (inactive)
